# Test system: RBM10 RRM1-ZnF-RRM2 (GST-tagged construct);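 note: 20 pmol protein with 1.5 nmol RNA pool for 30 min at 4°C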
# assayName: RNAcompete 7-mer binding Z-score; higher = stronger binding preference
Whole data set: some 16,000 sequences, median “Z-score” near -0.37, cut for the highest 2% near 3.1. What follows is part of a selection rich in the highest values, with near analogues and random picks from the rest.
valueKind: RNAcompete 7-mer binding Z-score
The response must contain the number and no unit.

Look up RNAcompete 7-mer binding Z-score for this sequence: `GCGGUGA`
1.39

Another sequence to check: `UCUUGCG`
-0.664

Entry `CCGAACU` please
-0.839

Queued: `UAACAGG`
1.14

Likewise for `GAACAGG` ?
3.18

Next: `GAAUGGA`
3.56

Another sequence to look at: `CUGGUGG`
1.22

Now the same for `ACCUCUG`
-0.814

`AAGGUGG` , same question.
4.32

Another sequence to check: `GGAGAGA`
1.26

Try the sequence `UCGGAGU`
0.257

Next record, please: `AAAGGCU`
0.796

Next entry: `GGGAACA`
3.06

Now consider `GAGUGUU` .
0.432

Now give it for `UUGAGGA` too.
1.04

Same for `AAUGGGA`
4.69

And `UAUCACG` ?
-0.435

Next sequence: `UAAUGGA`
1.64

And for `CGAGGGC` ?
1.41

Also need `AAGGAGU` , thanks.
3.12

Next: `UAACUAC`
-0.551

Can you check `UCUGGUC` next?
-0.522

Would you mind doing `GAAUGGU` as well?
2.65

`GACGAGA` ?
0.691

Entry to check: `CGGAAAA`
0.854

What about `GGCUCAA` ?
-0.122

Moving on to the next sequence: `AGUAAGA`
0.541

Same read-out for `UGGAAAG` ?
2.78

Record: `CAGGUGA`
1.54

Can you check `AAGGUGU` next?
2.26

Also `UGCCACC` ?
-0.759

// query: `CGCGUGG`
1.41

Same question, `GAAUGGC` this time
1.68

Same lookup for `GUGAGGG` , please.
4

Entry `GCAGGGA` please
2.94

# repeat for `GCCACUU`
-0.992

Also need `CAUCCCU` , thanks.
-0.69

Subsequent entry: `CGAACUC`
-0.719

Cool, now `CCAGCUA`
-0.719

Now give it for `GAGGUGA` too.
2.6

Same question for `UCCAGCC` please.
-0.799

What do we get for `AGGAUAA` ?
1.21

Entry to check: `UUGAGGG`
3.15

Now consider `GCCAGCA` .
-0.205

Thanks! And `CUUAAAC` ?
-0.646

Now consider `AUGAGGG` and answer again.
4.32

Also need `GUGGGCG` , thanks.
3.37

Also check `GAUCGUU`
-0.464

`AGGAAUG` , same question.
2.07

# repeat for `UUGAGGC`
0.341

Check `AGAGACC` too.
-0.774

Please do the same for `GAACAGA` as well.
0.745

Thanks! And `GUGGAAC` ?
1.73

Now give it for `GUGGAAG` too.
3.47

What do you get for `UCUGUGG` ?
0.199

// same read-out, input: `GGAGUCA`
1.05

Repeat for the following sequence: `ACAUCAG`
-0.191

Quick one: `CGAGGGG`
3.29

Next record, please: `AAAUGUA`
0.0859

Next entry: `CAAGGAG`
2.31

And the next one, `CGGAAGA` ?
0.862

Ok, now `GGACAGG`
3.23

Try this sequence too: `UGGGUGA`
3.5

Then what about the sequence `AUGGUGC` ?
0.789

And for `AAAGCCU` ?
-0.734

One more sequence: `CAUGGGA`
2.16

Same question, `UCGGUGA` this time
0.479

Can you check `GCAUCGA` next?
-0.22

Ok, now `GGGAAUU`
1.91

Also need `AGACAGG` , thanks.
1.72

Follow-up entry: `GCAAGUG`
0.709

Would you kindly repeat that for `CCCCUCG` ?
-0.573

# iterate: `GGGAAUA`
3.15

Then `GGGAAGU` ?
2.76

And the next one, `GGCCGUA` ?
0.0786

Then `GUGGGCA` ?
3.48

----------
So I've got a bunch of sequences here, and I need their RNAcompete 7-mer binding Z-score values.
# Tested on: RBM10 RRM1-ZnF-RRM2 (GST-tagged construct);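 note: 20 pmol protein with 1.5 nmol RNA pool for 30 min at 4°C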
# assayName: RNAcompete 7-mer binding Z-score; higher = stronger binding preference
The full ranking holds about 16,000 sequences; the median of “Z-score” is about -0.37, and the highest 2% start at about 3.1. The full list was thinned out, with the highest values kept by preference.

Fill in the blank: the reported RNAcompete 7-mer binding Z-score of `GGCGGGA` is ____.
3.23

Same thing, different sequence: `GGAAUGU`
1.58

Subsequent entry: `UGGGGAA`
3.58

Please answer likewise for `UGCGUGA`
0.381

Quick one: `AUCACCU`
-0.876

`UGAUGGU` , same question.
1.26

Okay, and `UGGGGAC` ?
2.28

Proceed to `GGAUGGC`
2.46

Let us now turn to `AGAACAU`
-0.398

Same question, `GGAUCGC` this time
0.538

Record: `UAGGGCA`
2.23

// query: `UAGGGGU`
3.84

Field entry: `AACAGGC`
1.62

Next sequence up: `UCGGGAA`
1.4

Ok, now `GGCUAAA`
0.661

Thanks! And `GCACUAG` ?
-0.0161

Also check `CGGGUCC`
0.723

Another sequence to look at: `AACAAAG`
0.355

Another: `UGAAUGG`
2.22

Same for `GGAUGGU`
3.73

----------
Exercise: state measured RNAcompete 7-mer binding Z-score for each of the sequences provided.
# Test system: RBM10 RRM1-ZnF-RRM2 (GST-tagged construct);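 note: 20 pmol protein with 1.5 nmol RNA pool for 30 min at 4°C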
# assayName: RNAcompete 7-mer binding Z-score; higher = stronger binding preference
In all, about 16,000 sequences were measured (“Z-score”: median about -0.37, highest 2% from about 3.1 on). The list comes from a sample in which the highest values are over-represented; it also holds close analogues and randomly drawn sequences.

What is its RNAcompete 7-mer binding Z-score for RBM10 RRM1-ZnF-RRM2 (GST-tagged construct)? Entry: `CACUUCC`
-0.868

Ok, now `AAGGACA`
3.12

Quick one: `CGGGUAU`
1.39

Another: `AGGAAGG`
4.46

Same question, `CUCGUUC` this time
-0.61

// query: `CAACUAC`
-0.628

Item: `AGUCGAC`
0.00944

Record: `GGGUUGG`
4.05

Next entry: `AGUGUGG`
2.64

Same question for `AGGAGGA` please.
2.22

What do you get for `AAGUUAC` ?
-0.289

Next sequence: `AGCGCUG`
-0.0889

Try `GGGUAGC` next.
2.69

Moving on to `ACGUAAU`
-0.417

Input `GUGGGGU`
4.45

Cool, now `GGGAGUG`
3.84

Can you handle `CGGUAGA` next?
1.01

Then what about the sequence `ACAGAUC` ?
-0.508

Also check `CGCAACU`
-0.825

What do you get for `GUCAGAG` ?
0.406

Let us now turn to `GGGUUAG`
4.04

For `CGGAAGG` then?
2.53

Again, but for `UGGAAGU`
1.6

Would you kindly repeat that for `UGUGGGC` ?
1.83

Further, for `AGGUUGG` ?
2.71

One more sequence: `CGGUUGG`
1.91

Queued: `GAUAUUG`
0.283

Could you do the same for `CGUAAGG` , please?
0.844

How about this sequence: `UUCCGUC`
-0.726

What do you have for `GUGGGAG` ?
3.99

Query `CCCCAAU` next
-0.755

Likewise for `GAAAAAG` ?
1.52

Next sequence up: `GUGGUAG`
2.26

Do the same for `UGGAAGG` please
3.68

Also check `GGGGUAA`
3.5

Please answer likewise for `CCACUCG`
-0.73

Field entry: `CUUUAGG`
-0.369

And what about the sequence `UACACAU` ?
-0.5

Also `GGGUAUC` ?
2.16

What would you report for `UCAAUUC` ?
-0.752

How about `UGGUUAG` ?
1.94

Similarly, `GGGAGUA` ?
2.34

Now this one: `UGGUAGG`
3.16

Follow-up item: `GCAGCGG`
2.14

Queued: `CACGUGC`
-0.428

Now the same for `AUAAGUU`
-0.249

Next: `UGGGUAA`
2.38

Then this sequence: `UACUCUC`
-0.734

Then what about the sequence `UGAAAGG` ?
2.76

Another: `UGGAGUG`
2.72

Can you check `UGGUAGC` next?
1.01

And what about the sequence `UUUGAUC` ?
-0.719

Next: `AGGGUAU`
3.41

Can you check `AAAAGGU` next?
2.52

Please do the same for `ACCCAGG` as well.
-0.173

And then `GCGGGAG` , what is it?
2.64

Ok, now `GGCCGCC`
-0.683

What do you have for `UGGGGUU` ?
2.78

Okay, and `AGGUAUG` ?
1.95

Proceed to `AACCGUG`
-0.00148

Follow-up item: `CCUCGGC`
-0.701

What would you report for `GGGUUGA` ?
3.53

One more sequence: `UGUGGGG`
3.75

Now the same for `UGGCUUU`
-0.464

Now the same for `GUUAGUG`
0.953

How about this sequence: `GGGGGGU`
3.13

Quick one: `GAGGUAA`
2.53

Param item: `UAGAGGU`
1.68

Next record, please: `ACAAUCG`
-0.173

Next up: `AUGUAAC`
-0.147

Queued: `UGUGGUG`
1.57

Now the sequence `GCGGUAU`
0.574

Now consider `UUCGGGA` .
0.734

And for `UCAUGGG` ?
1.19
